Protocol notes: content of 3-chloro-6-[3,6-dihydro-4-(3-methylphenyl)-1(2H)-pyridinyl]pyridazine in solutions of γ-CD derivatives (procedure of example 4)
Assay type: physicochemical
Reported conditions: phosphate buffer ph 7.4, pH 7.4, aqueous buffer, 0% γ-CD derivative (weight by volume)
Assay metric: solubility thermodynamic at 120 h (µg/mL)
Answer in µg/mL, number only, no unit symbol.

Return solubility thermodynamic at 120 h for the following compound: Cc1cccc(C2=CCN(c3ccc(Cl)nn3)CC2)c1
0.4

All figures here come from patent US4870060A.
